- assayName: physchem
- conditionDescription: 22 °C, pH 4.85, water, thermodynamic from solid, Solubility (mg/mL)
measurementKind: solubility at 24 h (mg/mL)
State just the number; it will be interpreted in mg/mL.

Report solubility at 24 h for "O=C(O)CSc1nnc(Br)n1-c1ccc(C2CC2)c2ccccc12" please. 49.2

----------
- assayedSystem: hURAT1 Transporter (Homo sapiens)
- Construct: Full-length human URAT1 gene (SLC22A12) was subcloned from plasmid pCMV6-XL5
- Sequence (Q96S37 whole entry): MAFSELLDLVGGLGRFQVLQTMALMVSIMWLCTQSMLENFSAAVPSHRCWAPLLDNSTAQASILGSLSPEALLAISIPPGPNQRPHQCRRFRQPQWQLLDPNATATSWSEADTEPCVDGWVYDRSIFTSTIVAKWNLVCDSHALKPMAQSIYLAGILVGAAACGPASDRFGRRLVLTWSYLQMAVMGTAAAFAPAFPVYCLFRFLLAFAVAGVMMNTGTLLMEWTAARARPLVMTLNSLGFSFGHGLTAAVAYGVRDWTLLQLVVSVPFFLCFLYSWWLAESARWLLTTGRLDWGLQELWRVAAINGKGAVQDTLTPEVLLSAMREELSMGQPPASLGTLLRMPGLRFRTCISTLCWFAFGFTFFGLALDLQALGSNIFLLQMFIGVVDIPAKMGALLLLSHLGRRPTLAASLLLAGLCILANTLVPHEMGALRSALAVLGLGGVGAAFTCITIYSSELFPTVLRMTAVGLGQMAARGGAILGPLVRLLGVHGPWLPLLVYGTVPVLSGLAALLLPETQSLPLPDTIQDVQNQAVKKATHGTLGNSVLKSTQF
- assayName: Uric Acid Uptake Assay
- Format: cell-based
- conditionDescription: HEK293/urat1 cells; C14 Uric Acid 40 μM; 10 minutes at room temperature
pEC50: −log10 of the molar value.
measurementKind: pEC50

Report pEC50 for "CC(C)(C)OC(=O)C(C)(C)Sc1nnc(Br)n1-c1ccc(C2CC2)c2ccccc12" please. < 4.52

Report pEC50 for "Cc1nnc(SCC(=O)O)n1-c1ccc(Oc2ccccc2)cc1" please. < 4.52

Report pEC50 for "COC(=O)CSc1nnc(Br)n1-c1ccc(C2CC2)c2ccccc12" please. 4.52 to 6.00

Report pEC50 for "Nc1nnc(SCC(=O)O)n1-c1ccc(C2CC2)c2ccccc12" please. 4.52 to 6.00

Report pEC50 for "Cc1ccc(-n2c(Br)nnc2SCC(=O)O)c2ccccc12" please. 4.52 to 6.00

Every entry's value here was drawn from patent US8633232B2.
